- system_tested: Interstitial collagenase (Homo sapiens)
- Sequence (P03956 whole entry): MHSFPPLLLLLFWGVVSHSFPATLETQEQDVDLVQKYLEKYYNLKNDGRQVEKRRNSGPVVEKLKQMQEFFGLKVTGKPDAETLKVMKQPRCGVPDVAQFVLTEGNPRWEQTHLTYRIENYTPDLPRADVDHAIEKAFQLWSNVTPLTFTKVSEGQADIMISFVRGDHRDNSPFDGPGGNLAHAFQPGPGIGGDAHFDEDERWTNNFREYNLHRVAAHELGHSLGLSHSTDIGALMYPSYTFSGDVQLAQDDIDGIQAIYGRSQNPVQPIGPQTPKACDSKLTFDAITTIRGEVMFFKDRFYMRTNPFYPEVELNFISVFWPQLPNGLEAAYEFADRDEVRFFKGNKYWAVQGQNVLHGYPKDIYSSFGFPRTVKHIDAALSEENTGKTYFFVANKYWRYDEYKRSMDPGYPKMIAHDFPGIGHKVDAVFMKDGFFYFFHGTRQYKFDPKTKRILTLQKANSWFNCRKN
experimental_readout: Ki

| molecule | experimental_readout | result |
| --- | --- | --- |
| CC(C)C[C@H](NC(=O)C(CCc1ccccc1)CP(=O)(O)CNC(=O)OCc1ccccc1)C(=O)Nc1ccccc1 (stereo partly specified) | Ki | 15.9 µM |

* * *

- system_tested: Stromelysin-1 (Homo sapiens)
- Sequence (P08254 whole entry): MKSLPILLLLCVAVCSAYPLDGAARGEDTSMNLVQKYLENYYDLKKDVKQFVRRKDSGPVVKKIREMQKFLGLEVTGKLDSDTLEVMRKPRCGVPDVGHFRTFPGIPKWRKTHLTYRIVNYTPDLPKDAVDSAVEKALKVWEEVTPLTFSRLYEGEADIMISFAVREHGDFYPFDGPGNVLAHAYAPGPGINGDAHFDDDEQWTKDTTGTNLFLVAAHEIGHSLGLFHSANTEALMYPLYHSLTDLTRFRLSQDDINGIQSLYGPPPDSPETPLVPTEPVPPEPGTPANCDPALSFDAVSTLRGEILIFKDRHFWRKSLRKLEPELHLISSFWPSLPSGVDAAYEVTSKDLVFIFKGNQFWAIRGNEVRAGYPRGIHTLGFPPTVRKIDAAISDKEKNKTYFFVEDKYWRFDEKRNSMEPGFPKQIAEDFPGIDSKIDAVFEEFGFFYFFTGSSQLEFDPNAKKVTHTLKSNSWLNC
- assay_explanation: In vitro inhibition of human recombinant stromelysin-1.
experimental_readout: Ki (nM)

| molecule | result_number |
| --- | --- |
| CC(=O)N[C@@H](C)C(=O)N[C@@H](C)C(=O)N[C@@H](C)P(=O)(O)CC(CCc1ccccc1)C(=O)N[C@@H](CC(C)C)C(=O)Nc1ccccc1 (some centres not stated) | 42 |
| CC(C)C[C@H](NC(=O)C(CCc1ccccc1)CP(=O)(O)CNC(=O)CNC(=O)OCc1ccccc1)C(=O)Nc1ccccc1 (some centres not stated) | 1400 |
| CC(C)C[C@H](NC(=O)C(CCc1ccccc1)CP(=O)(O)[C@H](C)NCc1ccccc1)C(=O)Nc1ccccc1 (some centres not stated) | 1900 |
| CC(=O)N1CCCC1C(=O)N[C@@H](C)C(=O)N[C@@H](C)P(=O)(O)CC(CCc1ccccc1)C(=O)N[C@@H](CC(C)C)C(=O)Nc1ccccc1 (some centres not stated) | 6.1 |
| CC(C)C[C@H](NC(=O)C(CCc1ccccc1)CP(=O)(O)[C@H](C)NC(=O)OCc1ccccc1)C(=O)Nc1ccccc1 (some centres not stated) | 330 |
| CC(C)C[C@H](NC(=O)C(CCc1ccccc1)CP(=O)(O)[C@H](C)NC(=O)CN1C(=O)c2ccccc2C1=O)C(=O)Nc1ccccc1 (some centres not stated) | 2400 |
| CC(C)C[C@H](NC(=O)C(CCc1ccccc1)CP(=O)(O)CNC(=O)[C@H](C)NC(=O)C1CCCN1C(=O)c1ccccc1)C(=O)Nc1ccccc1 (some centres not stated) | 24 |
| CC(C)C[C@H](NC(=O)C(CCc1ccccc1)CP(=O)(O)CNC(=O)OCc1ccccc1)C(=O)Nc1ccccc1 (some centres not stated) | 280 |
| CC(C)C[C@H](NC(=O)C(CCc1ccccc1)CP(=O)(O)CNCc1ccccc1)C(=O)Nc1ccccc1 (some centres not stated) | 1900 |
| CC(C)C[C@H](NC(=O)C(CCc1ccccc1)CP(=O)(O)CNC(=O)[C@H](Cc1ccccc1)NC(=O)OCc1ccccc1)C(=O)Nc1ccccc1 (some centres not stated) | 710 |
| CC(C)C[C@H](NC(=O)C(CCc1ccccc1)CP(=O)(O)CNC(=O)[C@H](Cc1ccc(O)cc1)NC(=O)OCc1ccccc1)C(=O)Nc1ccccc1 (some centres not stated) | 560 |
| CC(C)C[C@H](NC(=O)C(CCc1ccccc1)CP(=O)(O)CNC(=O)[C@H](Cc1c[nH]cn1)NC(=O)OCc1ccccc1)C(=O)Nc1ccccc1 (some centres not stated) | 210 |
| CC(C)CC(NC(=O)C(CCc1ccccc1)CP(=O)(O)CNC(=O)CN1C(=O)c2ccccc2C1=O)C(=O)Nc1ccccc1 (configuration not stated) | 410 |
| CC(C)C[C@H](NC(=O)C(CCc1ccccc1)CP(=O)(O)CNC(=O)[C@H](CCCCN)NC(=O)OCc1ccccc1)C(=O)Nc1ccccc1 (some centres not stated) | 4600 |
| CC(C)C[C@H](NC(=O)C(CCc1ccccc1)CP(=O)(O)CNC(=O)[C@H](C)NC(=O)OCc1ccccc1)C(=O)Nc1ccccc1 (some centres not stated) | 280 |
| CCCC[C@H](NC(=O)OCc1ccccc1)C(=O)NCP(=O)(O)CC(CCc1ccccc1)C(=O)N[C@@H](CC(C)C)C(=O)Nc1ccccc1 (some centres not stated) | 1300 |
| CC(C)C[C@H](NC(=O)C(CCc1ccccc1)CP(=O)(O)CNC(=O)[C@H](CCC(=O)O)NC(=O)OCc1ccccc1)C(=O)Nc1ccccc1 (some centres not stated) | 370 |
| CC(C)C[C@H](NC(=O)C(CCc1ccccc1)CP(=O)(O)CNC(=O)Cc1ccccc1)C(=O)Nc1ccccc1 (some centres not stated) | 940 |
| CC(=O)N1CCCC1C(=O)N[C@@H](C)C(=O)NCP(=O)(O)CC(CCc1ccccc1)C(=O)N[C@@H](CC(C)C)C(=O)Nc1ccccc1 (some centres not stated) | 15 |
| CC(=O)N[C@@H](C)C(=O)N[C@@H](C)P(=O)(O)CC(CCc1ccccc1)C(=O)N[C@@H](CC(C)C)C(=O)Nc1ccccc1 (some centres not stated) | 340 |
| CC(C)C[C@H](NC(=O)C(CCc1ccccc1)CP(=O)(O)CNC(=O)[C@H](CC(N)=O)NC(=O)OCc1ccccc1)C(=O)Nc1ccccc1 (some centres not stated) | 600 |
| CC(C)C[C@H](NC(=O)C(CCc1ccccc1)CP(=O)(O)[C@H](C)NC(=O)[C@H](C)NC(=O)C1CCCN1C(=O)c1ccccc1)C(=O)Nc1ccccc1 (some centres not stated) | 20 |

Data origin: ChEMBL document CHEMBL1127884
